- TEST: Plasma concentrations of ponesimod by LC-MS/MS
- Format: in vivo, human
- PARTICULARS: human, plasma, oral, 20 mg; regimen A, Day 15; read-out: plasma concentration 3 h after 20 mg of ponesimod

MOLECULE: CCC/N=C1\S/C(=C\c2ccc(OC[C@H](O)CO)c(Cl)c2)C(=O)N1c1ccccc1C [ponesimod]
concentration at 3 h: 144 ng/mL
